# study.system: T1, Solute carrier family 35 member A5 (SLC35A5), eGFP fusion (human, UniProt Q9BS91 1-424)
# T1 construct: SLC35A5, putative nucleotide sugar transporter; expressed from the plasmid pTag-GFP2-C-A5; FRET donor in every pair; In the pair A5 + A5 the second copy carried mRFP (pTag-RFP-C-SLC35A construct) in place of eGFP; also called pTag-GFP2-C-A5; source: HEK293T, transiently transfected, in living cells
# T1 sequence (looked up): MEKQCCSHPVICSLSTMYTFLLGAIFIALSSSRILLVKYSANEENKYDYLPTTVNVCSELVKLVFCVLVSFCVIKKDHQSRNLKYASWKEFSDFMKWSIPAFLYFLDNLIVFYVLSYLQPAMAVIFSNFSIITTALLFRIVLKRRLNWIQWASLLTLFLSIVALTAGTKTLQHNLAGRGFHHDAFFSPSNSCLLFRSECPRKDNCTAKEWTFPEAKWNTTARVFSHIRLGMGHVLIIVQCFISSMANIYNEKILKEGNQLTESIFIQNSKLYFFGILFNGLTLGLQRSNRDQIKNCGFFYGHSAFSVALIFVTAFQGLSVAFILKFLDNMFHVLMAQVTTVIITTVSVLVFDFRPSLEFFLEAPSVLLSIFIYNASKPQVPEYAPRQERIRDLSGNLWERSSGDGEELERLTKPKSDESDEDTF
# method.summary: FRET or BRET; FLIM/FRET in living HEK293T cells transiently co-transfected, analysed 48 h after transfection in FluoroBrite DMEM; SLC35A5-eGFP as donor, mRFP-tagged SLC35A proteins as acceptors; eGFP lifetime of the donor alone 2.70 ns
# reported.conditions: partners not purified
parameter: eGFP fluorescence lifetime of the donor with the acceptor (donor alone 2.70 ns)
Reply with just the number (in ns).

The examples below pair each entry with its known result.
INSERT INTO results (binder, recorded_measurement) VALUES
  ('CMP-sialic acid transporter (SLC35A1), mRFP fusion (natural protein, UniProt P78382 1-337, looked up, SLC35A1, CMP-sialic acid transporter; expressed from a pTag-RFP-C-SLC35A construct; FRET acceptor; The legend writes ''mRFP/SLC35A proteins''; also called mRFP/SLC35A1; source: HEK293T, transiently transfected, in living cells) MAAPRDNVTLLFKLYCLAVMTLMAAVYTIALRYTRTSDKELYFSTTAVCITEVIKLLLSVGILAKETGSLGRFKASLRENVLGSPKELLKLSVPSLVYAVQNNMAFLALSNLDAAVYQVTYQLKIPCTALCTVLMLNRTLSKLQWVSVFMLCAGVTLVQWKPAQATKVVVEQNPLLGFGAIAIAVLCSGFAGVYFEKVLKSSDTSLWVRNIQMYLSGIIVTLAGVYLSDGAEIKEKGFFYGYTYYVWFVIFLASVGGLYTSVVVKYTDNIMKGFSAAAAIVLSTIASVMLFGLQITLTFALGTLLVCVSIYLYGLPRQDTTSIQQGETASKERVIGV', 2.29),
  ('UDP-galactose transporter (SLC35A2), Golgi splice variant, mRFP fusion (natural protein, UniProt P78381-2 1-393, looked up, expressed from a pTag-RFP-C-SLC35A construct; FRET acceptor; also called first splice variant of SLC35A2; source: HEK293T, transiently transfected, in living cells) MAAVGAGGSTAAPGPGAVSAGALEPGTASAAHRRLKYISLAVLVVQNASLILSIRYARTLPGDRFFATTAVVMAEVLKGLTCLLLLFAQKRGNVKHLVLFLHEAVLVQYVDTLKLAVPSLIYTLQNNLQYVAISNLPAATFQVTYQLKILTTALFSVLMLNRSLSRLQWASLLLLFTGVAIVQAQQAGGGGPRPLDQNPGAGLAAVVASCLSSGFAGVYFEKILKGSSGSVWLRNLQLGLFGTALGLVGLWWAEGTAVATRGFFFGYTPAVWGVVLNQAFGGLLVAVVVKYADNILKGFATSLSIVLSTVASIRLFGFHVDPLFALGAGLVIGAVYLYSLPRGAAKAIASASASASGPCVHQQPPGQPPPPQLSSHRGDLITEPFLPKSVLVK', 2.24);

Would you kindly look at the next entry?
Enquiry: Record request: eGFP fluorescence lifetime of the donor with the acceptor (donor alone 2.70 ns) value, item SLC35A4, mRFP fusion (natural protein, UniProt Q96G79 1-324, looked up, SLC35A4, member of the SLC35A subfamily; expressed from a pTag-RFP-C-SLC35A construct; FRET acceptor; source: HEK293T, transiently transfected, in living cells) MSVEDGGMPGLGRPRQARWTLMLLLSTAMYGAHAPLLALCHVDGRVPFRPSSAVLLTELTKLLLCAFSLLVGWQAWPQGPPPWRQAAPFALSALLYGANNNLVIYLQRYMDPSTYQVLSNLKIGSTAVLYCLCLRHRLSVRQGLALLLLMAAGACYAAGGLQVPGNTLPSPPPAAAASPMPLHITPLGLLLLILYCLISGLSSVYTELLMKRQRLPLALQNLFLYTFGVLLNLGLHAGGGSGPGLLEGFSGWAALVVLSQALNGLLMSAVMKHGSSITRLFVVSCSLVVNAVLSAVLLRLQLTAAFFLATLLIGLAMRLYYGSR
Return: 2.39

# credit: paper PMC6359379
